assay: in vivo; design: species or system mouse; conditions: female, mouse, 3 g/kg/day, Steady-state AUC(0-24)
Measured property: AUC(0-t)

Qu. Consider the compound `OC[C@@H](O)[C@@H](O)[C@@H](O)CO` and give its measured AUC(0-t).
Ans. 749 µg·h/mL
